Every entry's value here was drawn from PubChem BioAssay.

assayed target: Torsin-1A (Homo sapiens) (UniProt O14656)
Sequence (O14656 whole entry, looked up): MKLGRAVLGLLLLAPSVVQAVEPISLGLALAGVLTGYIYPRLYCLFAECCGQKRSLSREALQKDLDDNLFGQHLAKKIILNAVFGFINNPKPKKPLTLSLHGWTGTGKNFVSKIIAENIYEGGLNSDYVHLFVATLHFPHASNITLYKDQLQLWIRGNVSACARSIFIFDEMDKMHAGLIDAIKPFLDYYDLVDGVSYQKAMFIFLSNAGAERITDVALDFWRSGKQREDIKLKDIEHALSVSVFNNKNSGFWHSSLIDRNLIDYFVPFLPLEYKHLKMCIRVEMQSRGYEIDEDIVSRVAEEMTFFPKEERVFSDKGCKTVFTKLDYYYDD
measurement protocol: TOR1A wild-type binding on microarray – cell lysate, small-molecule microarray, lysate, 635/667 nm, primary screen (AID 1149)
setup conditions: COS7 hTOR1A-WT lysate, 635 nm fluorescence, higher = more signal
Binary classification by composite z-score, with 0.7 as an inclusive lower bound for Fulfilled; all other cases are Not fulfilled.

molecule	qualitative label
CC(C)(C)OC(=O)CC[C@]1(C(=O)O)COC(c2ccc(OCCCO)cc2)=N1	Not fulfilled
NCCCCCCNC(=O)[C@H]1C[C@H]2C(=O)N3CCC[C@H]3C(=O)N2[C@H]1c1ccc(O)cc1	Not fulfilled
COCCOC(=O)N1C(=O)[C@@]2(c3cc(C#Cc4ccc(OC)cc4)ccc31)[C@H](C(=O)N1CCc3cc(OC)c(OC)cc3C1)[C@H]1C(=O)O[C@H](c3ccccc3)[C@H](c3ccccc3)N1[C@@H]2c1ccc(OCCO)cc1	Not fulfilled
COCC(=C=CC[C@@H](O)c1ccccc1OCCO)C[C@@H](O)COCc1ccccc1	Fulfilled
O=C1OCCC=C[C@H]2OC34C=CCN(Cn5nnc6ccccc65)C(=O)[C@H]3N(CCCCCO)C(=O)[C@@H]4C12 (some centres not stated)	Fulfilled
C[C@]12C(=O)N(CCCCCO)[C@@H]3C(=O)N(c4ccc(Cl)cc4)CC=CC31O[C@@H]1/C=C\CCCOC(=O)C12 (some centres not stated)	Not fulfilled
N#Cc1ccc(NN2C(C(O)c3ccco3)C=CC3C(=O)N(c4ccccc4)C(=O)C32)cc1 (configuration not stated)	Not fulfilled

---

# Lookup of reported z-score keyed by entry
measurement protocol: JC-1 mitochondrial signal, unstimulated HepG2 cells – cell-based, JC-1 fluorescence, 24 h, 100 nL compound, profiling panel (AID 1167); also: test concentration not given here
setup conditions: HepG2 mitochondrial potential, higher = more signal
endpoint name: z-score

molecule	recorded value
COC(=O)C(CC#Cc1ccc2c(c1)[C@]1(C(=O)N2)[C@H](C(=O)N2CCc3cc(OC)c(OC)cc3C2)[C@H]2C(=O)O[C@H](c3ccccc3)[C@H](c3ccccc3)N2[C@@H]1c1ccc(OCCO)cc1)C(=O)OC	-2.03
O=C1NC(=O)C2C1C=CC(C(O)c1ccc(-c3ccccc3)s1)N2Nc1ccccn1 (configuration not stated)	-1.85
COCC(=C=CC[C@@H](O)c1ccccc1OCCO)C[C@@H](O)c1ccccn1	-0.95
C=CCNC(=O)[C@@H]1[C@H]2C(=O)O[C@H](c3ccccc3)[C@H](c3ccccc3)N2[C@H](c2ccc(O)cc2)[C@@]12C(=O)Nc1ccc(C#CCCO)cc12	-0.931
C[C@@H]1ON(c2ccccc2)[C@H](c2ccccc2)[C@H]1C(=O)N1C(=O)OC[C@H]1Cc1ccccc1	1.38
COc1ccc(CCNC(=O)[C@@H]2c3ccccc3C(=O)N(Cc3ccccc3)[C@H]2c2ccc(CO)cc2)cc1	2.56
O=C1O[C@H](c2ccccc2)[C@H](c2ccccc2)N2[C@H]1[C@@H](C(=O)N1CCN(c3ncccn3)CC1)[C@]1(C(=O)Nc3ccc(C#CCCO)cc31)[C@H]2c1ccccc1OCCO	0.308

---

measurement protocol: probe aNOTCH3 binding on compound microarray – biochemical, small-molecule microarray, 635/667 nm fluorescence, primary screen (AID 1120);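 also: probe is a biotin-tagged antibody raised against NOTCH3 rather than NOTCH3 protein; score merges spot fluorescence near 667 nm with spot signal to noise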
setup conditions: higher = more signal
Binary classification by composite z-score, with -0.03 as an inclusive lower bound for criterion met; all other cases are criterion not met.

molecule	qualitative label
COCCCNC(=O)[C@@]1(Cc2ccccc2)COC(c2ccc(OCCCO)cc2)=N1	criterion met
COCCOC(=O)N1C(=O)[C@@]2(c3cc(C#CC4(O)CCCCCC4)ccc31)[C@H](C(=O)NC[C@H](O)c1ccccc1)[C@H]1C(=O)O[C@H](c3ccccc3)[C@H](c3ccccc3)N1[C@@H]2c1ccc(OCCO)cc1	criterion not met
O=C1c2ccccc2C(=O)C2CC([C@H]3Oc4ccccc4S(=O)(=O)N4CCC[C@@H]34)=CCC12 (stereo partly specified)	criterion not met
[N-]=[N+]=Nc1ccccc1C[C@]1(C(=O)NCCN2CCOCC2)N=C(c2ccc(OCCCO)cc2)O[C@H]1c1ccccc1N=[N+]=[N-]	criterion met
COCCOC(=O)N1C(=O)[C@@]2(c3cc(C#CCC(C(=O)OC)C(=O)OC)ccc31)[C@H](C(=O)N1CCCCCCC1)[C@H]1C(=O)O[C@H](c3ccccc3)[C@H](c3ccccc3)N1[C@@H]2c1ccc(O)cc1	criterion met
COc1ccc(C(=O)Nc2ccc(CN3C(=O)[C@@]4(O[C@@H](CC(=O)N5Cc6ccccc6C[C@H]5CO)[C@H]([Si](C)(C)c5ccc(OC)cc5)[C@H]4C)c4ccccc43)cc2)cc1	criterion not met

---

measurement protocol: calcein-AM signal in unstimulated myeloma cells – cell-based, calcein-AM fluorescence, 48 h, PK04 Diversity Set, profiling panel (AID 1166);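 also: cells grown under basal conditions without added stimulus; test concentration not given here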
setup conditions: RPMI8226 myeloma viability, higher = more signal
The label is MET for z-score below -0.6 and NOT MET for z-score equal to or exceeding -0.6.

compound	qualitative label
COc1ccc(C#Cc2ccc3c(c2)[C@]2(C(=O)N3)[C@H](C(N)=O)[C@H]3C(=O)O[C@H](c4ccccc4)[C@H](c4ccccc4)N3[C@@H]2c2ccc(O)cc2)cc1	MET
COCCOC(=O)N1C(=O)[C@@]2(c3cc(C#CCC(C(=O)OC)C(=O)OC)ccc31)[C@H](c1ccc(OCCO)cc1)N1[C@H](c3ccccc3)[C@H](c3ccccc3)OC(=O)[C@H]1[C@@H]2C(N)=O	MET
COc1ccc([Si](C)(C)[C@@H]2[C@@H](CCO)O[C@]3(C(=O)N(Cc4ccccc4)c4ccc(N5C(=O)COc6ccccc65)cc43)[C@H]2C)cc1	NOT MET
C=CC[C@@]1(C(=O)NCCN2CCOCC2)N=C(c2ccc(OCCCO)cc2)O[C@@H]1c1ccccc1	NOT MET
COC(=O)[C@@]1(Cc2ccccc2)[C@H]2c3cc(C(=O)N4CCCC4)n(Cc4ccc(OC(F)(F)F)cc4)c3C[C@H]2CN1C(=O)c1ccccc1	MET
COc1ccc(C(=O)Nc2ccc3c(c2)[C@]2(O[C@@H](CCO)[C@H]([Si](C)(C)c4ccc(OC)cc4)[C@H]2C)C(=O)N3Cc2ccccc2)cc1	MET
O=C1O[C@H](c2ccccc2)[C@H](c2ccccc2)N2[C@H]1[C@@H](C(=O)N1CCN(c3ncccn3)CC1)[C@]1(C(=O)Nc3ccc(C#CCCO)cc31)[C@H]2c1ccc(OCCO)cc1	NOT MET
[N-]=[N+]=Nc1ccccc1[C@@H]1OC(c2ccc(OCCCO)cc2)=N[C@]1(CCS(=O)(=O)c1ccccc1)C(=O)NCc1ccccc1	NOT MET
COC(=O)[C@]1(Cc2ccccc2N=[N+]=[N-])N=C(c2ccc(OCCCO)cc2)O[C@@H]1c1ccccc1	MET
COc1cc(NN2C(C(O)c3ccc(I)cc3)C=CC3C(=O)N(C)C(=O)C32)cc(OC)c1OC (stereo unspecified)	NOT MET
CCOC(=O)C[C@H]1[C@H](OC(=O)c2ccc(C(=O)c3ccccc3)cc2)[C@@H](NC(=O)C2CCCCC2)c2cc(OCCCO)ccc2N1C(=O)Cc1ccc(OC)cc1	MET
COCCCNC(=O)[C@]1(CCS(=O)(=O)c2ccccc2)N=C(c2ccc(OCCCO)cc2)O[C@@H]1c1ccccc1	MET
C=CCC(OC(C)=O)[C@@H]1[C@@H](N(Cc2cccc3ccccc23)C(=O)c2ccc(C)cc2)c2cc(OCCCO)ccc2N1C(=O)c1ccc2ccccc2c1 (stereo partly specified)	NOT MET
NC(=O)[C@@H]1[C@H]2C(=O)O[C@H](c3ccccc3)[C@H](c3ccccc3)N2[C@H](c2ccccc2OCCO)[C@@]12C(=O)Nc1ccc(C#CCCO)cc12	MET
COc1cccc(C)c1NC(=O)O[C@H]1[C@H](OC(=O)Nc2ccccc2)[C@H](OC(=O)Nc2ccccc2)[C@@H](OC)O[C@@H]1CO	MET
C=C(CCCC)/C(=C/C[C@@H](OC(=O)c1ccncc1)c1ccccc1OCCO)c1cc(C(=O)OC)ccc1OC	MET
CC(C)c1ccc(NN2C(C(O)c3ccccn3)C=CC3C(=O)N(c4ccccc4)C(=O)C32)cc1 (stereo unspecified)	MET
COc1cc2c(cc1OC)CN(C(=O)[C@@H]1[C@H]3C(=O)O[C@H](c4ccccc4)[C@H](c4ccccc4)N3[C@H](c3ccc(OCCO)cc3)[C@@]13C(=O)Nc1ccc(C#CCCO)cc13)CC2	MET
COc1cc2c(cc1OC)CN(C(=O)[C@@H]1[C@H]3C(=O)O[C@H](c4ccccc4)[C@H](c4ccccc4)N3[C@H](c3ccc(O)cc3)[C@@]13C(=O)Nc1ccc(C#CCNC(N)=O)cc13)CC2	NOT MET
CO[C@H]1O[C@H](CO)[C@@H](OC(=O)c2ccc(Br)cc2)[C@@H]2OC(=O)[C@H](Cc3cccc(Br)c3)C/C=C/C[C@@H](Cc3cccc(Br)c3)C(=O)O[C@@H]12	MET
CCOC(=O)C1=CCC(c2cccc(Cl)c2)O1 (stereo unspecified)	MET
CN(C)CCCCNC(=O)[C@H]1C[C@H]2C(=O)N[C@@H](CCCC[N+](C)(C)C)C(=O)N2[C@H]1c1cccc(OCCO)c1	NOT MET
CO[C@H]1O[C@H](CO)[C@@H](OC(=O)Nc2cccc(F)c2)[C@H](OC(=O)Nc2ccc3c(c2)OCO3)[C@H]1OC(=O)Nc1ccc2c(c1)OCO2	MET
[N-]=[N+]=NCc1ccccc1C[C@@]1(C(=O)NCCN2CCOCC2)N=C(c2ccc(OCCCO)cc2)O[C@@H]1c1ccccc1CN=[N+]=[N-]	MET
COC(=O)[C@]1(Cc2ccccc2CN=[N+]=[N-])N=C(c2ccc(OCCCO)cc2)O[C@@H]1c1ccccc1	MET
CN1C(=O)C2C=CC(C(O)c3cccc4ccccc34)N(NC(=O)OC(C)(C)C)C2C1=O (stereo unspecified)	MET
